Hey, just so you know, these numbers are from the supplement of paper PMC10724198.

Test system: Saccharomyces cerevisiae
method.notes: protein stability index of tFT-peptide fusion (C-terminal peptide) (PSI (0-1 scale)); higher = more stable (slower turnover)
run.parameters: genetic background: wild type; temperature: 30 C
readout.type: protein stability index
Answers are plain numbers.

Field: example entries. Status: answers known.
> print(dat)
   chain.sequence             readout.type  observed.result
1    TLAPPSRATPPP  protein stability index            0.648
2    ESSRNILLWRTI  protein stability index            0.443

Record protein stability index for all entries; do not skip any.
1. SPGPVTPRPSLR
2. QKIIEDNQNTGR
3. YYSTQTQATYRH
4. MKKKTTKTKIKK
5. KQRKSESGSNTV

1: 0.669; 2: 0.663; 3: 0.677; 4: 0.72; 5: 0.686

Record protein stability index for all entries; do not skip any.
1. QTIKKKKKDKKN
2. GVVGVGRCWGLV
3. INEEIVDMKRLL
4. VERRNAVGTDEK
5. PSLLSHAPSPRR

[0.764, 0.628, 0.697, 0.611, 0.682]

Record protein stability index for all entries; do not skip any.
1. KTPAAVPWTRER
2. PLPSPRLRFLVP
3. GLGRWGCLEGLG
4. YSLETGIFVFHR
5. VIRDISAFSQVV
6. VSLGHGYVFRRV

1. 0.693
2. 0.653
3. 0.716
4. 0.703
5. 0.677
6. 0.692

Record protein stability index for all entries; do not skip any.
1. WLVPSGTRTGRV
2. SVVSSDVGGGRI
3. NFAIYPTLYKYD

1. 0.678
2. 0.539
3. 0.667

###

Field: protein stability index. Provide a value for each of the sequences that follow.
System: Saccharomyces cerevisiae
method.notes: protein stability index of tFT-peptide fusion (C-terminal peptide) (PSI (0-1 scale)); higher = more stable (slower turnover)
run.parameters: genetic background: wild type; temperature: 30 C
One number for each entry.

Field: example entries. Status: answers known.
> print(dat)
   chain.sequence  observed.result
1    HGLPSFANPGNF            0.716
2    AAPRPYRPCYPN            0.664
3    SPLASAVPFLIV            0.633
4    LNPPFICFAWLY            0.598
5    VGDVVWFGVGAG            0.761

Record protein stability index for all entries; do not skip any.
1. PSHPPLLLPLLL
2. LFTPLLVPYPTP
3. SPLALATPLSDP
4. SNPKLPYSGTLE
5. RRRRAVGPREAP
6. LLGGRVLWAWRV
7. VGGVWGGGWGHW
8. VGPDGFWGVVLG

1. 0.714
2. 0.522
3. 0.699
4. 0.669
5. 0.717
6. 0.376
7. 0.736
8. 0.719

###

System: Saccharomyces cerevisiae
method.notes: protein stability index of tFT-peptide fusion (C-terminal peptide) (PSI (0-1 scale)); higher = more stable (slower turnover)
run.parameters: genetic background: das1 deletion; temperature: 37 C
Entry class follows protein stability index: low: < 0.5; mid: ≥ 0.5 and < 0.6; high: ≥ 0.6

Please review the following examples before continuing.
> print(dat)
   chain.sequence  label.class
1    FQLGLVFCVCSG          low
2    YHRKAILMCTFS          mid
3    WLTCSLVFNVFW          low
4    HNQDKNVKYKIG         high
5    PPSLFLLLKVFF          low

Note: place this sequence into its band. Item: GFPFLFILYFLC
low

Note: place this sequence into its band. Item: RFKEKVSIIHKQ
high

Note: place this sequence into its band. Item: FLLASSRRICCS
mid

Note: place this sequence into its band. Item: IYFFVLRLRLCG
low

Note: place this sequence into its band. Item: CVLLVFLHLCLA
low

Note: place this sequence into its band. Item: GGGVGGAVVLFW
high

Note: place this sequence into its band. Item: TFRVRRQKNRNM
high

Note: place this sequence into its band. Item: FFTLSTVKLLRV
mid

###

Field: protein stability index. Provide a value for each of the sequences that follow.
System: Saccharomyces cerevisiae
method.notes: protein stability index of tFT-peptide fusion (C-terminal peptide) (PSI (0-1 scale)); higher = more stable (slower turnover)
run.parameters: genetic background: das1 deletion; temperature: 30 C
Numbers only.

Field: example entries. Status: answers known.
> print(dat)
   chain.sequence             readout.type  observed.result
1    PPPPLATTSAPL  protein stability index            0.661
2    YIFLPIALVFFP  protein stability index            0.304
3    MMEMMTKSNRIP  protein stability index             0.63
4    ILCVEFFVSVSV  protein stability index            0.163
5    FILLHLLGTIRS  protein stability index            0.372

Record protein stability index for all entries; do not skip any.
1. LRFFYFLHFCIL
2. LFWFRGTIVTPR
3. FFCLVEVFVGVF
4. VHTAIFTSWRRL

1. 0.43
2. 0.638
3. 0.115
4. 0.631

###

System: Saccharomyces cerevisiae
method.notes: protein stability index of tFT-peptide fusion (C-terminal peptide) (PSI (0-1 scale)); higher = more stable (slower turnover)
run.parameters: genetic background: wild type; temperature: 30 C
readout.type: protein stability index

> print(dat)
   chain.sequence                    system  observed.result
1    SSRRVVLPLLVA  Saccharomyces cerevisiae            0.202
2    SLPYPFSLLPSL  Saccharomyces cerevisiae            0.739
3    PSPSPPPLRSPL  Saccharomyces cerevisiae            0.623
4    FRTVRSMVGRRP  Saccharomyces cerevisiae            0.721
5    SVGGVGGAVGGG  Saccharomyces cerevisiae            0.663
6    RPRTLLARSTHP  Saccharomyces cerevisiae            0.717
7    PVPSPFMHRAAP  Saccharomyces cerevisiae            0.702
8    YFSSSPVFPPHL  Saccharomyces cerevisiae            0.667

Record protein stability index for all entries; do not skip any.
1. RKTKKEEKTKRN
2. KKKKKNKKKTIK
3. PPHPFPPPPPPS
4. PPPLPPPPAPPY
5. TPTSPPLPLTIS
6. MRRKKSGPEYQR

1. 0.719
2. 0.689
3. 0.665
4. 0.734
5. 0.579
6. 0.678

###

Field: protein stability index. Provide a value for each of the sequences that follow.
System: Saccharomyces cerevisiae
method.notes: protein stability index of tFT-peptide fusion in deletion strain of DOA10 (PSI (0-1 scale)); higher = more stable (slower turnover)
Numbers only.

Field: example entries. Status: answers known.
> print(dat)
   chain.sequence  observed.result
1    RSLRVLLPSYFR            0.668
2    RVTRKDAIYFRI            0.664
3    RSLRVHLPLYFR             0.67
4    RSLRVYLPLYFR            0.678
5    AITLPMCPLLKR            0.676

Record protein stability index for all entries; do not skip any.
1. CLHSLPILLFFR
2. RSLRVLLPLYFS
3. RVTRLDAIWFRI
4. RSLRYLLPLYFR
5. AICLPMCPLLLR
6. AITLPMCPLLLI

0.626
0.352
0.676
0.671
0.632
0.596

###

Field: protein stability index. Provide a value for each of the sequences that follow.
Tested on: Saccharomyces cerevisiae
method.notes: protein stability index of tFT-peptide fusion (C-terminal peptide) (PSI (0-1 scale)); higher = more stable (slower turnover)
run.parameters: genetic background: doa10 deletion; temperature: 30 C
Numbers only.

Field: example entries. Status: answers known.
> print(dat)
   chain.sequence  observed.result
1    SWWISKWVGLNC            0.367
2    RVTYWKAVLVRL            0.108
3    FQFTLWRTLLCS            0.113

Record protein stability index for all entries; do not skip any.
1. IVWVSSFVCRSV
2. SCYDYVILLQLS
3. LFTTYVFLVFFQ
4. LPLVFYCFLLHS

1. 0.447
2. 0.178
3. 0.269
4. 0.386

###

Test system: Saccharomyces cerevisiae
method.notes: protein stability index of tFT-peptide fusion (C-terminal peptide) (PSI (0-1 scale)); higher = more stable (slower turnover)
run.parameters: genetic background: wild type; temperature: 30 C
Field: protein stability index. Provide a value for each of the sequences that follow.
Answers are plain numbers.

> print(dat)
   chain.sequence                    system  observed.result
1    DCVWGLERVLLL  Saccharomyces cerevisiae            0.756
2    PVSCTLTLPPPH  Saccharomyces cerevisiae             0.65

Record protein stability index for all entries; do not skip any.
1. PVPVLGPESSVH
2. RRGENQSFPACR
3. ASMRIVWWFGML
4. PPPPLATTSAPL
5. VLLSFVFCGWVR
6. LFLAPFRLVLGV
7. ELFGGQRLARNY
8. LAKRSKCCNRSR

1: 0.67; 2: 0.701; 3: 0.495; 4: 0.719; 5: 0.442; 6: 0.518; 7: 0.637; 8: 0.686

Record protein stability index for all entries; do not skip any.
1. GRGIVVQNVLRQ
2. VLFGLFAPCFLF
3. DIVSGGLCVEVL

[0.696, 0.59, 0.643]

Record protein stability index for all entries; do not skip any.
1. ELTLTVFQVGEE
2. LCPRIAIVHPPS
3. TSSTEKTKTKRP
4. IFWGFSFRGWGG
5. GNQAILGRYLSV
6. VFEVNPRFDKLV
7. RKSRKPNSEPKR

0.602
0.606
0.809
0.684
0.623
0.758
0.717
